EC50 by entry:
target: T1, PCSK9 protein inserted with biotin receiving peptide BP15 and His-tag: PCSK9-BP15-His6 (human, UniProt Q8NBP7 153-692; A8T644 31-152, biotin on the BP15 biotin receiving peptide (labeled during the expression)); test: ELISA, biotin PCSK9 on streptavidin plate
T1 construct: also called WT PCSK9; PCSK9 WT
Give the value in ng/mL but do not write ng/mL after it.

A selection of reference data follows.
Binder	EC50, ng/mL
h011-3174 (antibody, V domains shown) VH: QVQLVQSGAEVKKPGASVKVSCKASGYTFTGYTIHWVRQAPGQGLEWMGYINPSSTYTKFNQKFKDRVTMTRDTSISTAYMELSRLRSDDTAVYYCARERIFSNYWFFDVWGQGTTVTVSS VL: DIVMTQSPSSLSASVGDRVTITCKASQNVYTAVAWYQQKPGKSPKLLIYQASNRYTGVPSRFSGSGSGTDFTLTISSLQPEDFATYFCQQYSSYPYTFGGGTKVEIK	5.29
h011-3195 (antibody, V domains shown) VH: QVQLVQSGAEVKKPGASVKVSCKASGYTFTGYTIHWVRQAPGQGLEWMGYINPSSTYTKFNQKFKDRVTMTRDTSISTAYMELSRLRSDDTAVYYCARERIFSNYWFFDVWGQGTTVTVSS VL: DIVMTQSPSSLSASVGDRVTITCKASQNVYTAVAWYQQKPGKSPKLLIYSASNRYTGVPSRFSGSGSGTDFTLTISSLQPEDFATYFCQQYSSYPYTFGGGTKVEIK	6.79
humanized antibody h011-3 (antibody, V domains shown, h011_VH.1 with h011_VL.1B) VH: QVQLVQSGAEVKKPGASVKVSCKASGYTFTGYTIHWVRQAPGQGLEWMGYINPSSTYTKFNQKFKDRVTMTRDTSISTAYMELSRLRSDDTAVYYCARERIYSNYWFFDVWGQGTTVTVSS VL: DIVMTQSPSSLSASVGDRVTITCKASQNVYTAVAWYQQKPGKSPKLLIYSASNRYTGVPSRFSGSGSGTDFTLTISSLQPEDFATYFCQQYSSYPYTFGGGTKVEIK	7.19
h011-3070 (antibody, V domains shown) VH: QVQLVQSGAEVKKPGASVKVSCKASGYTFTGYTIHWVRQAPGQGLEWMGYINPSSTYTKFNQKFKDRVTMTRDTSISTAYMELSRLRSDDTAVYYCARENIYFNYWFFDRWGQGTTVTVSS VL: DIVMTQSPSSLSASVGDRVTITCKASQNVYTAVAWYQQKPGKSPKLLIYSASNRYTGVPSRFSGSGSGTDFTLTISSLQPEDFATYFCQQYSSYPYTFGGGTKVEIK	5.11

Consider the additional binder presented here.
Exercise: For the binder shown here, h011-3190 (antibody, V domains shown) VH: QVQLVQSGAEVKKPGASVKVSCKASGYTFTGYTIHWVRQAPGQGLEWMGEINPSSTYTKFNQKFKDRVTMTRDTSISTAYMELSRLRSDDTAVYYCARERIYSNYWFFDVWGQGTTVTVSS VL: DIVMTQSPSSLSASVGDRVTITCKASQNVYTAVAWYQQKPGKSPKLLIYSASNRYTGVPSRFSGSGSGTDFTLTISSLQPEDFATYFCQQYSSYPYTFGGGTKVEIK , give the reported EC50.
Key: 5
